Data origin, for the record: paper PMC12311110

measured-target: hRetromer (Homo sapiens, UniProt O75436+Q96QK1+Q9UBQ0)
Construct: GST (pGEX4T-2, thrombin site plus linker) (N, cleaved yes); made in house; host or cells: E. coli BL21 (DE3)
test-method-notes: Isothermal titration calorimetry (ITC) of binding to Retromer
assay-conditions: ITC, Microcal PEAQ-ITC, 25 °C; 1 mM DENND4C1189-1206 peptide (native or L1204A) titrated into 14 µM Retromer; single-site binding model; mean of triplicate titrations; read-out: Kd
Protocol: All the bacteria constructs were expressed in BL21 (DE3) cells using the autoinduction method. In brief, cultures grown in complex medium were incubated at 37 °C for 4 h, followed by overnight growth at 20 °C before harvesting for purification. […] The effect of cyclic peptide was assessed by pre-mixing 140 µM RT-D1 into 14 µM Retromer before titrating with 1 mM of native DENND4C1189-1206 peptide. […]
No end group written: not given here.
value-type: pKd
Just so you know, pKd here is -log10 of the concentration in molar units; reply with that number alone.

[in] For AKVVQREDVETGLDPLSL [hDENND4C1189-1206] , what is its reported pKd?
[out] 4.81
